These measurements were taken from patent US11370779B2.

tgt: FLT3 kinase (Homo sapiens (Human))
Sequence (P36888 610-943): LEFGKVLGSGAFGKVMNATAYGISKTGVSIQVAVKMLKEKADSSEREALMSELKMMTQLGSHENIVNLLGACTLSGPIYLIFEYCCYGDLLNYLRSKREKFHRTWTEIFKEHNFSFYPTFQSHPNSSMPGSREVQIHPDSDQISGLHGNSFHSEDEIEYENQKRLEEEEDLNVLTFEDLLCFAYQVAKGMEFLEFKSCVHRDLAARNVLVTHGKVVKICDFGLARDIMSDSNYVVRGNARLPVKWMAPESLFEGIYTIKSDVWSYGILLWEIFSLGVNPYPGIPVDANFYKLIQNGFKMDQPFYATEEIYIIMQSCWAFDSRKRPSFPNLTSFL
method description: In vitro FLT3 kinase HTRF assay (Example 2)
Assay type: biochemical
assay setup: Table 1; HTRF, recombinant FLT3 kinase domain, 500 μM ATP
Where a name gives a salt, the structure may show the parent alone.
Could you please mark True for values of IC50 below 8 nM and False for values at or above it?

[
  {
    "compound": "COC(=O)c1ccc2c(c1)/C(=C1/Nc3ccccc3/C1=N\\OCCBr)C(=O)N2",
    "class name": "False"
  },
  {
    "compound": "COC(=O)c1ccc2c(c1)/C(=C1/Nc3ccccc3/C1=N\\OCCN)C(=O)N2 [Compound 3, hydrochloride]",
    "class name": "True"
  },
  {
    "compound": "O=C1Nc2ccc(C(=O)O)cc2/C1=C1/Nc2ccccc2/C1=N\\OCCBr",
    "class name": "False"
  },
  {
    "compound": "NCCO/N=C1/C(=C2/C(=O)Nc3ccc(C(=O)O)cc32)Nc2ccccc21 [Compound 9, hydrochloride]",
    "class name": "True"
  }
]

---

tgt: cMET (Homo sapiens (Human))
Sequence (P08581 25-1390): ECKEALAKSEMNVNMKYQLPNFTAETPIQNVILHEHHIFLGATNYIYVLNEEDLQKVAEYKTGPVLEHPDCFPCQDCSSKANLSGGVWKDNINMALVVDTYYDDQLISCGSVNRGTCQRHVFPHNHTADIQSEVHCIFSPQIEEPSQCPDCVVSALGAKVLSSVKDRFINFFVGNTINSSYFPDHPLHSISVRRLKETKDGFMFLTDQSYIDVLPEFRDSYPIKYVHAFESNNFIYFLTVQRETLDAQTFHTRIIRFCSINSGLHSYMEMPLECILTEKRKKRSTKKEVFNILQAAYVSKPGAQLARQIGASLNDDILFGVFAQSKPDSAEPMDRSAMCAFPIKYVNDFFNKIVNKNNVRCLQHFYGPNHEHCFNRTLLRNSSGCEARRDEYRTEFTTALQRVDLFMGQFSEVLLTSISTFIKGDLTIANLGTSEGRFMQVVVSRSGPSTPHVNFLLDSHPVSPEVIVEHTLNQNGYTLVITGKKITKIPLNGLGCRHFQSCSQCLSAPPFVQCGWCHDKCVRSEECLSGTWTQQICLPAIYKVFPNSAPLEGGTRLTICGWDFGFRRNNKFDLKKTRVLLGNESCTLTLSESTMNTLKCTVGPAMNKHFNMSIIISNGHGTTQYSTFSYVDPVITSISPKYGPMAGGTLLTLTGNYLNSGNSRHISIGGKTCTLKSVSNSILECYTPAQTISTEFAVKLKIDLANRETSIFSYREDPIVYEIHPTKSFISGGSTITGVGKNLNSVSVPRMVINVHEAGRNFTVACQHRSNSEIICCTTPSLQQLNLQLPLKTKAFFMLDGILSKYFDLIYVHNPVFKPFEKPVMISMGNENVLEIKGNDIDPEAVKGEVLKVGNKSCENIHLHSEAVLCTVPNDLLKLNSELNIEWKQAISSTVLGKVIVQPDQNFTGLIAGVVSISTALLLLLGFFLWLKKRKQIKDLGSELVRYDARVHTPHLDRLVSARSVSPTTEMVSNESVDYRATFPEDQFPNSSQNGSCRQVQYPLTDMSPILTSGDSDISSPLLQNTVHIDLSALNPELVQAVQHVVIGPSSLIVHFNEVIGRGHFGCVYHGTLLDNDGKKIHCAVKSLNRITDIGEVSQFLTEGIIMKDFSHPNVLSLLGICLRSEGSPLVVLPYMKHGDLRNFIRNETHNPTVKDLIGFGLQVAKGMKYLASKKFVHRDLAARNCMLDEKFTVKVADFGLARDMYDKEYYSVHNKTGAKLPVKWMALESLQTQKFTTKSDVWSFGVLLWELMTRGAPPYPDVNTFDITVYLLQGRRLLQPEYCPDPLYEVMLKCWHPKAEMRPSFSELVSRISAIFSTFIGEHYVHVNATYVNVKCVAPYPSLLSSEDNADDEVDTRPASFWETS
method description: cMET in vitro kinase HTRF assay
Type: biochemical
assay setup: mean ± S.D.

[
  {
    "molecule": "COC(=O)c1ccc2c(c1)/C(=C1/Nc3ccccc3/C1=N\\OCCN1CCNCC1)C(=O)N2.Cl.Cl [Compound 4, dihydrochloride]",
    "measure unit": "µM",
    "IC50": 0.25
  }
]

---

System: MDA-MB-231
method description: Cell viability, EZ-Cytox tetrazolium assay, MDA-MB-231
Type: cell-based, human
assay setup: Homo sapiens, MDA-MB-231; 72 hours
Counter-ions that a name gives are not always drawn.

[
  {
    "molecule": "Cl.Cl.O=C1Nc2ccc(F)cc2/C1=C1/Nc2ccccc2/C1=N\\OCCN1CCNCC1 [Compound 33, dihydrochloride]",
    "measure unit": "nM",
    "value prefix": "=",
    "GI50": 117
  },
  {
    "molecule": "O=C1Nc2ccccc2/C1=C1/Nc2ccccc2/C1=N\\OCCN1CCCCC1 [Compound 30, hydrochloride]",
    "measure unit": "nM",
    "value prefix": ">",
    "GI50": 1
  },
  {
    "molecule": "Cl.Cl.O=C1Nc2ccccc2/C1=C1/Nc2ccccc2/C1=N\\OCCN1CCNCC1 [Compound 28, dihydrochloride]",
    "measure unit": "nM",
    "value prefix": "=",
    "GI50": 276
  },
  {
    "molecule": "O=C1Nc2ccccc2/C1=C1/Nc2ccccc2/C1=N\\OCCN1CCCC1 [Compound 31, hydrochloride]",
    "measure unit": "nM",
    "value prefix": "=",
    "GI50": 313
  },
  {
    "molecule": "O=C1Nc2ccc([N+](=O)[O-])cc2/C1=C1/Nc2ccc(F)cc2/C1=N\\OCCN1CCCC1 [Compound 20, hydrochloride]",
    "measure unit": "nM",
    "value prefix": "=",
    "GI50": 144
  },
  {
    "molecule": "NC1CCN(CCO/N=C2/C(=C3/C(=O)Nc4ccc(F)cc43)Nc3ccc(F)cc32)CC1 [Compound 25, dihydrochloride]",
    "measure unit": "nM",
    "value prefix": ">",
    "GI50": 1
  },
  {
    "molecule": "O=C1Nc2ccc([N+](=O)[O-])cc2/C1=C1/Nc2ccccc2/C1=N\\OCCN1CCNCC1 [Compound 16, dihydrochloride]",
    "measure unit": "nM",
    "value prefix": "=",
    "GI50": 74.3
  },
  {
    "molecule": "O=C1Nc2ccc(F)cc2/C1=C1/Nc2ccc(F)cc2/C1=N\\OCCN1CCCC1 [Compound 24, hydrochloride]",
    "measure unit": "nM",
    "value prefix": "=",
    "GI50": 347
  },
  {
    "molecule": "Cl.Cl.O=C1Nc2ccc(F)cc2/C1=C1/Nc2ccc(F)cc2/C1=N\\OCCN1CCNCC1 [Compound 21, dihydrochloride]",
    "measure unit": "nM",
    "value prefix": "=",
    "GI50": 121
  },
  {
    "molecule": "CN1CCN(CCO/N=C2/C(=C3/C(=O)Nc4ccc(F)cc43)Nc3ccccc32)CC1.Cl.Cl [Compound 34, dihydrochloride]",
    "measure unit": "nM",
    "value prefix": "=",
    "GI50": 127
  },
  {
    "molecule": "CN1CCN(CCO/N=C2/C(=C3/C(=O)Nc4ccc(F)cc43)Nc3ccc(F)cc32)CC1 [Compound 22, dihydrochloride]",
    "measure unit": "nM",
    "value prefix": "=",
    "GI50": 600
  }
]
